# experimental-system: T1, Synthetic TMEM97 (108-176) peptide
# T1 construct: Synthetic peptide; also called full C-terminal synthetic TMEM97
# T1 peptide: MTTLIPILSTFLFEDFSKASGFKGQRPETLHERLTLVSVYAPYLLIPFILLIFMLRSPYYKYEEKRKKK
# test-name: SPR, synthetic TMEM97 (108-176) immobilized, Hst1 as analyte; SPR; synthetic TMEM97 (108-176)
pKd: −log10 of the molar value. Square brackets hold non-standard residues; d marks the D form. Ends that are not written are not given here. pS = N[C@@H](COP(=O)(O)O)C(=O)O
value-type: pKd

>>> experimental_result("D[pS]HEKRHHGYRRKFHEKHHSHREFPFYGDYGSNYLYDN (Synthetic linear peptide made by Fmoc solid-phase synthesis; also called Hst1(1-38); H1) [Histatin 1 (Hst1)]")
5.55

Reference source: patent US20230190870A1
